System: 349418-098-R-PDC complex spheroid viability
Test: Anticancer human tumor 349418-098-R-PDC patient-derived lung adenocarcinoma cell line growth inhibition [RAS]
Details: second compound 0.3 µM; first compound 0.316 µM; active compounds read low

molecule	unit_of_measurement	viability, T/C
C=CC(=O)Nc1cc(Nc2nccc(-c3cn(C)c4ccccc34)n2)c(OC)cc1N(C)CCN(C)C + CCn1c(-c2cccnc2C(C)OC)c2c3cc(ccc31)N1CCOC(CC(NC(=O)C(C(C)C)N(C)C(=O)C3(F)CCN(C(=O)C#CC(C)(C)N(C)C)CC3)C(=O)N3CCCC(N3)C(=O)OCC(C)(C)C2)C1	%	88.2
Cc1nc(N2CCC3(CC2)COC(C)C3N)c(CO)nc1Sc1ccnc(N)c1Cl (stereo unspecified) + CCn1c(-c2cc(N3CCN(C)CC3)cnc2C(C)OC)c2c3cc(ccc31)-c1csc(n1)CC(NC(=O)C1CC1C)C(=O)N1CCCC(N1)C(=O)OCC(C)(C)C2	%	100
Cc1nc(N2CCC3(CC2)COC(C)C3N)c(CO)nc1Sc1ccnc(N)c1Cl (stereo unspecified) + CCn1c(-c2cccnc2C(C)OC)c2c3cc(ccc31)N1CCOC(CC(NC(=O)C(C(C)C)N(C)C(=O)C3(F)CCN(C(=O)C#CC(C)(C)N(C)C)CC3)C(=O)N3CCCC(N3)C(=O)OCC(C)(C)C2)C1	%	100
CC(=O)OC12COC1CC(O)C1(C)C(=O)C(O)C3=C(C)C(OC(=O)C(O)C(NC(=O)OC(C)(C)C)c4ccccc4)CC(O)(C(OC(=O)c4ccccc4)C21)C3(C)C (stereo unspecified) + CCn1c(-c2cc(N3CCN(C)CC3)cnc2C(C)OC)c2c3cc(ccc31)-c1csc(n1)CC(NC(=O)C1CC1C)C(=O)N1CCCC(N1)C(=O)OCC(C)(C)C2	%	17.8
CC1(O)CCCC1n1c(=O)c(C(F)F)cc2cnc(NC3CCN(S(C)(=O)=O)CC3)nc21 (stereo unspecified) + CCn1c(-c2cc(N3CCN(C)CC3)cnc2C(C)OC)c2c3cc(ccc31)-c1csc(n1)CC(NC(=O)C1CC1C)C(=O)N1CCCC(N1)C(=O)OCC(C)(C)C2	%	22.5
CC1(O)CCCC1n1c(=O)c(C(F)F)cc2cnc(NC3CCN(S(C)(=O)=O)CC3)nc21 (stereo unspecified) + CCn1c(-c2cccnc2C(C)OC)c2c3cc(ccc31)N1CCOC(CC(NC(=O)C(C(C)C)N(C)C(=O)C3(F)CCN(C(=O)C#CC(C)(C)N(C)C)CC3)C(=O)N3CCCC(N3)C(=O)OCC(C)(C)C2)C1	%	22.4

###

Recorded viability, T/C values for a group of compounds are listed next.
Test system: 349418-098-R-PDC complex spheroid viability
Assay: Anticancer human tumor 349418-098-R-PDC cell line growth inhibition [RAS];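 also: spheroids exposed to compound for seven days before viability readout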
Conditions: second compound 0.3 µM; first compound 0.316 µM; active compounds read low

compound	viability, T/C, %
CC(Nc1ccc2c(c1)OCCn1cc(N3C(=O)OCC3C(F)F)nc1-2)C(N)=O (centres undefined) + CCn1c(-c2cccnc2C(C)OC)c2c3cc(ccc31)N1CCOC(CC(NC(=O)C(C(C)C)N(C)C(=O)C3(F)CCN(C(=O)C#CC(C)(C)N(C)C)CC3)C(=O)N3CCCC(N3)C(=O)OCC(C)(C)C2)C1	21.5
C=CC(=O)Nc1cc(Nc2nccc(-c3cn(C)c4ccccc34)n2)c(OC)cc1N(C)CCN(C)C + CCn1c(-c2cc(N3CCN(C)CC3)cnc2C(C)OC)c2c3cc(ccc31)-c1csc(n1)CC(NC(=O)C1CC1C)C(=O)N1CCCC(N1)C(=O)OCC(C)(C)C2	109
CCC(CC)c1cc(NC2CCC(N)C2)n2nccc2n1 (centres undefined) + CCn1c(-c2cccnc2C(C)OC)c2c3cc(ccc31)N1CCOC(CC(NC(=O)C(C(C)C)N(C)C(=O)C3(F)CCN(C(=O)C#CC(C)(C)N(C)C)CC3)C(=O)N3CCCC(N3)C(=O)OCC(C)(C)C2)C1	81.8
C=CC(=O)N1CCN(c2nc(OCC3CCCN3C)nc3c(F)c(-c4nc(N)cc(C)c4C(F)(F)F)c(Cl)cc23)C(C)C1 (centres undefined) + CCn1c(-c2cc(N3CCN(C)CC3)cnc2C(C)OC)c2c3cc(ccc31)-c1csc(n1)CC(NC(=O)C1CC1C)C(=O)N1CCCC(N1)C(=O)OCC(C)(C)C2	99.7

###

Tested on: 349418-098-R-PDC complex spheroid viability
Assay: Anticancer human tumor 349418-098-R-PDC cell line growth inhibition [RAS]; active = viability on the fitted dose curve at most 10% of control; inactive = the rest;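 also: spheroids exposed to compound for seven days before viability readout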
Settings: second compound 0.003 µM; first compound 1 µM
Classes used: Y = active, N = inactive

molecule	qualitative_label
CC1(O)CCCC1n1c(=O)c(C(F)F)cc2cnc(NC3CCN(S(C)(=O)=O)CC3)nc21 (centres undefined) + CCn1c(-c2cccnc2C(C)OC)c2c3cc(ccc31)N1CCOC(CC(NC(=O)C(C(C)C)N(C)C(=O)C3(F)CCN(C(=O)C#CC(C)(C)N(C)C)CC3)C(=O)N3CCCC(N3)C(=O)OCC(C)(C)C2)C1	N
O=C(c1ccc(F)c(F)c1Nc1ccc(I)cc1F)N1CC(O)([C@@H]2CCCCN2)C1 + CCn1c(-c2cc(N3CCN(C)CC3)cnc2C(C)OC)c2c3cc(ccc31)-c1csc(n1)CC(NC(=O)C1CC1C)C(=O)N1CCCC(N1)C(=O)OCC(C)(C)C2	Y
CC(Nc1ccc2c(c1)OCCn1cc(N3C(=O)OCC3C(F)F)nc1-2)C(N)=O (centres undefined) + CCn1c(-c2cccnc2C(C)OC)c2c3cc(ccc31)N1CCOC(CC(NC(=O)C(C(C)C)N(C)C(=O)C3(F)CCN(C(=O)C#CC(C)(C)N(C)C)CC3)C(=O)N3CCCC(N3)C(=O)OCC(C)(C)C2)C1	N
C=CC(=O)N1CCN(c2nc(OCC3CCCN3C)nc3c(F)c(-c4nc(N)cc(C)c4C(F)(F)F)c(Cl)cc23)C(C)C1 (centres undefined) + CCn1c(-c2cc(N3CCN(C)CC3)cnc2C(C)OC)c2c3cc(ccc31)-c1csc(n1)CC(NC(=O)C1CC1C)C(=O)N1CCCC(N1)C(=O)OCC(C)(C)C2	N

###

System: 349418-098-R-PDC complex spheroid viability
Test: Anticancer human tumor 349418-098-R-PDC cell line growth inhibition [RAS]; active means viability on the fitted dose curve at most 10% of control; inactive means the rest;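 also: spheroids exposed to compound for seven days before viability readout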
Conditions: second compound 0.0949 µM; first compound 0.01 µM
Classes used: Yes (active), No (inactive)

compound	qualitative_label
CC(C)n1nc(-c2ccc3oc(N)nc3c2)c2c(N)ncnc21 + CCn1c(-c2cc(N3CCN(C)CC3)cnc2C(C)OC)c2c3cc(ccc31)-c1csc(n1)CC(NC(=O)C1CC1C)C(=O)N1CCCC(N1)C(=O)OCC(C)(C)C2	No
CCN1CCN(Cc2ccc(Nc3ncc(F)c(-c4cc(F)c5nc(C)n(C(C)C)c5c4)n3)nc2)CC1 + CCn1c(-c2cccnc2C(C)OC)c2c3cc(ccc31)N1CCOC(CC(NC(=O)C(C(C)C)N(C)C(=O)C3(F)CCN(C(=O)C#CC(C)(C)N(C)C)CC3)C(=O)N3CCCC(N3)C(=O)OCC(C)(C)C2)C1	No
C=CC(=O)N1CCN(c2nc(OCC3CCCN3C)nc3c(F)c(-c4nc(N)cc(C)c4C(F)(F)F)c(Cl)cc23)C(C)C1 (configuration not stated) + CCn1c(-c2cccnc2C(C)OC)c2c3cc(ccc31)N1CCOC(CC(NC(=O)C(C(C)C)N(C)C(=O)C3(F)CCN(C(=O)C#CC(C)(C)N(C)C)CC3)C(=O)N3CCCC(N3)C(=O)OCC(C)(C)C2)C1	No
CC(C)n1nc(-c2ccc3oc(N)nc3c2)c2c(N)ncnc21 + CCn1c(-c2cccnc2C(C)OC)c2c3cc(ccc31)N1CCOC(CC(NC(=O)C(C(C)C)N(C)C(=O)C3(F)CCN(C(=O)C#CC(C)(C)N(C)C)CC3)C(=O)N3CCCC(N3)C(=O)OCC(C)(C)C2)C1	No
CCN1CCN(Cc2ccc(Nc3ncc(F)c(-c4cc(F)c5nc(C)n(C(C)C)c5c4)n3)nc2)CC1 + CCn1c(-c2cc(N3CCN(C)CC3)cnc2C(C)OC)c2c3cc(ccc31)-c1csc(n1)CC(NC(=O)C1CC1C)C(=O)N1CCCC(N1)C(=O)OCC(C)(C)C2	No
C=CC(=O)N1CCN(c2nc(OCC3CCCN3C)nc3c(F)c(-c4nc(N)cc(C)c4C(F)(F)F)c(Cl)cc23)C(C)C1 (configuration not stated) + CCn1c(-c2cc(N3CCN(C)CC3)cnc2C(C)OC)c2c3cc(ccc31)-c1csc(n1)CC(NC(=O)C1CC1C)C(=O)N1CCCC(N1)C(=O)OCC(C)(C)C2	No
O=C(c1ccc(F)c(F)c1Nc1ccc(I)cc1F)N1CC(O)([C@@H]2CCCCN2)C1 + CCn1c(-c2cc(N3CCN(C)CC3)cnc2C(C)OC)c2c3cc(ccc31)-c1csc(n1)CC(NC(=O)C1CC1C)C(=O)N1CCCC(N1)C(=O)OCC(C)(C)C2	Yes
C=CC(=O)Nc1cc(Nc2nccc(-c3cn(C)c4ccccc34)n2)c(OC)cc1N(C)CCN(C)C + CCn1c(-c2cc(N3CCN(C)CC3)cnc2C(C)OC)c2c3cc(ccc31)-c1csc(n1)CC(NC(=O)C1CC1C)C(=O)N1CCCC(N1)C(=O)OCC(C)(C)C2	No
C=CC(=O)Nc1cc(Nc2nccc(-c3cn(C)c4ccccc34)n2)c(OC)cc1N(C)CCN(C)C + CCn1c(-c2cccnc2C(C)OC)c2c3cc(ccc31)N1CCOC(CC(NC(=O)C(C(C)C)N(C)C(=O)C3(F)CCN(C(=O)C#CC(C)(C)N(C)C)CC3)C(=O)N3CCCC(N3)C(=O)OCC(C)(C)C2)C1	No
O=C(c1ccc(F)c(F)c1Nc1ccc(I)cc1F)N1CC(O)([C@@H]2CCCCN2)C1 + CCn1c(-c2cccnc2C(C)OC)c2c3cc(ccc31)N1CCOC(CC(NC(=O)C(C(C)C)N(C)C(=O)C3(F)CCN(C(=O)C#CC(C)(C)N(C)C)CC3)C(=O)N3CCCC(N3)C(=O)OCC(C)(C)C2)C1	No
Nc1ccn(C2OC(CO)C(O)C2(F)F)c(=O)n1 (configuration not stated) + CCn1c(-c2cccnc2C(C)OC)c2c3cc(ccc31)N1CCOC(CC(NC(=O)C(C(C)C)N(C)C(=O)C3(F)CCN(C(=O)C#CC(C)(C)N(C)C)CC3)C(=O)N3CCCC(N3)C(=O)OCC(C)(C)C2)C1	Yes
Nc1ccn(C2OC(CO)C(O)C2(F)F)c(=O)n1 (configuration not stated) + CCn1c(-c2cc(N3CCN(C)CC3)cnc2C(C)OC)c2c3cc(ccc31)-c1csc(n1)CC(NC(=O)C1CC1C)C(=O)N1CCCC(N1)C(=O)OCC(C)(C)C2	No
